experiment: recombinant UMI read abundance after kanamycin selection (control-corrected) (log10(CPM+1)); higher = more efficient recombination; extreme values may be limits of the assay; sequences stand for … in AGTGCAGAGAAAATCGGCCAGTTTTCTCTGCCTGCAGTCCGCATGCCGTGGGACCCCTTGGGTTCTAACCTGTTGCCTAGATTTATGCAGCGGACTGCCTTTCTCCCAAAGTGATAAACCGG…AGGTTGGTTTCACT; site = the 11-nt donor;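 note: IS621 bridge recombinase in Escherichia coli cells against a fixed T5 target plasmid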
Kindly return 1 if reported recombinant UMI read abundance (log10) is no lower than 0.5; return 0 if it is lower.

Consider the following illustrative entries.
(Q) Quick check: does GACTGACCATGGACCGGTTTTCCCGGTAATCCGTATTTGGC (site GACTGACCTGC) have recombinant UMI read abundance (log10) greater than or equal to 0.5?
(A) 0

(Q) Test whether the sequence ACTCGCTCATGGACCGGTTTTCCCGGTAATCCGTATTTGGT (site ACTCGCTCTAC) records recombinant UMI read abundance (log10) of 0.5 or higher.
(A) 1

(Q) Could you verify whether the entry CACGGCCCATGGACCGGTTTTCCCGGTAATCCGTATTTGTC (site CACGGCCCTAA) shows recombinant UMI read abundance (log10) of no less than 0.5?
(A) 0

(Q) Please check the record GGGAATCCATGGACCGGTTTTCCCGGTAATCCGTATTTGAT (site CGGAATCCTAA) and state if its recombinant UMI read abundance (log10) is at or above 0.5.
(A) 0

(Q) Quick check: does CTCGTCCCATGGACCGGTTTTCCCGGTAATCCGTATTTGTA (site CTCGTCCCTTA) have recombinant UMI read abundance (log10) greater than or equal to 0.5?
(A) 1

(Q) State whether the measured recombinant UMI read abundance (log10) reaches 0.5, counting equality as reaching it, for TTTGCGGCATGGACCGGTTTTCCCGGTAATCCGTATTTGTT (site TTTGCGGCTAA)
(A) 0

(Q) Would you say TAGGTTCCATGGACCGGTTTTCCCGGTAATCCGTATTTGCC (site TAGGTTCCTGG) shows recombinant UMI read abundance (log10) at minimum 0.5?
(A) 1

(Q) Is reported recombinant UMI read abundance (log10) greater than or equal to 0.5 here: AGGACTACATGGACCGGTTTTCCCGGTAATCCGTATTTGCC (site AGGACTACTGT)
(A) 0

Continuing:
(Q) Could you tell me if the measured recombinant UMI read abundance (log10) of TGGAATGCATGGACCGGTTTTCCCGGTAATCCGTATTTGTT (site CGGAATCCTAA) reaches 0.5 or more?
(A) 0

(Q) Kindly determine if recombinant UMI read abundance (log10) recorded for CTTGGAACATGGACCGGTTTTCCCGGTAATCCGTATTTGTT (site CCTGGAACTAA) is above or exactly 0.5.
(A) 0

(Q) Is reported recombinant UMI read abundance (log10) greater than or equal to 0.5 here: TGTACTTCATGGACCGGTTTTCCCGGTAATCCGTATTTGGT (site TGTACTTCTAC)
(A) 1

(Q) For this sequence, is measured recombinant UMI read abundance (log10) 0.5 or higher? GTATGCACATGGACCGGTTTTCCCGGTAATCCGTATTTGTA (site GTAGGCACTTA)
(A) 0

(Q) Hi team, for GCTACTACATGGACCGGTTTTCCCGGTAATCCGTATTTGCC (site GCTACTACTGG) , is the recorded recombinant UMI read abundance (log10) at or above 0.5?
(A) 0
